These measurements were taken from PubChem BioAssay (NCI).

Test system: HCT-116 colon
Protocol: NCI-60 one-dose screen, 48 h (100 = growth as untreated, 0 = no growth, -100 = all killed)
Experimental Parameters: 10 µM unless noted
Compounds without any hit were thinned out: in the full panel of roughly 83,000, 20% have a hit.
Recorded measurements of growth, one per entry
Outcome Measure: growth (%)

* NC(=S)N/N=C/c1ccc(Cl)cc1 | 100
* CC(=O)N(C(C)=O)c1ccc(C)cc1 | 117
* CC(C)N(CCCC#N)C(C)C | 98.8
* COc1ccc(C2CCCCC2=O)cc1 (stereo not drawn) | 106
* CCOC(=O)C(COS(C)(=O)=O)(COS(C)(=O)=O)C(=O)OCC | 104
* COC(=O)c1cccc([N+](=O)[O-])c1 | 110
* CCOC(=O)c1ccc(C(C)(C)C)cc1 | 102
* COc1cccc(C(=O)NNC(=O)c2cccc3ccccc23)c1 | 108
* CCOC(=O)C1(N)CCCCC1 | 96
* FC(F)(F)c1cc(NC2=NCCN=C(Nc3cc(C(F)(F)F)cc(C(F)(F)F)c3)SS2)cc(C(F)(F)F)c1 | 45.4
* CSc1nc2[nH]ncc2c(=O)[nH]1 | 98.1
* Cc1[nH]c(=S)[nH]c(=O)c1C | 110
* Nc1ccc2ccccc2c1-c1c(N)ccc2ccccc12 | 24.9
* CN(C)Cc1ccccn1 | 99.8
* N#Cc1ccc2nc[nH]c2c1 | 105
* CCOC(=O)N[C@H]1CCc2cc(OC)c(OC)c(OC)c2-c2ccc(SC)c(=O)cc21 | 2.61
* COC(c1ccc2c(c1)OCO2)C(C)Br (stereo not drawn) | 88.5
* Cc1ccc(N)c(S(=O)(=O)O)c1 | 98.1
* O=S(=O)(O)c1cccc2cccnc12 | 100
* CC(=O)NNC(=S)/N=C\C(C(=O)c1ccccc1)=C(/O)c1ccccc1 | 96.5
* NC(=O)N1CCOCC1 | 106
* NC(=S)c1c(N)n(C2OC(CO)C(O)C2O)c2ncnc(N)c12 (stereo not drawn) | 5.32
* Nc1nnc2cc(F)ccc2n1 | 91.9
* O=C1NC(=O)/C(=C\c2ccncc2)N1 | 89.6
* CC(C)=CCC[C@@H](C)[C@H]1CC[C@@]2(C)C3=C(CC[C@]12C)[C@@]1(C)CC[C@H](O)C(C)(C)[C@@H]1CC3 | 108
* CCOC(=O)/C(C#N)=C\c1c[nH]c2ccccc12 | 100
* COC(=O)C1=C(C)C(=O)CC1 | 103
* CCN(C(C)=O)c1ccc([N+](=O)[O-])cc1 | 109
